Every entry's value here was drawn from ChEMBL document CHEMBL3988442.

Test system: Trypanosoma brucei
Experiment: Trypanosoma brucei 72 hour study
Type: functional, organism-based
Set-up: scale not given: in the data most compounds retested in dose-response had high values
Details: 30.3 µM; […]
Among all 66,000 compounds or so, about 960 (1.5%) showed an effect of 50% or more. This is one part of a sample in which strong results are shown more often than they occur.

[
  {
    "compound": "CCn1nc(C)c2ncnc(NCCCn3ccnc3)c21",
    "target": "Trypanosoma brucei",
    "Percent Effect / %": -35.88
  },
  {
    "compound": "Cc1ccc(C(=O)N2C[C@@H]3CN(c4ncccn4)C[C@@H]3C2)cc1",
    "target": "Trypanosoma brucei",
    "Percent Effect / %": -8.111
  },
  {
    "compound": "Cc1ccc(Oc2cc(F)ccc2O[C@@H]2CCC[C@@H](N)[C@H]2O)cc1",
    "target": "Trypanosoma brucei",
    "Percent Effect / %": 100.7
  },
  {
    "compound": "Cn1cccc1C(O)CNS(=O)(=O)c1ccccc1F (stereo not drawn)",
    "target": "Trypanosoma brucei",
    "Percent Effect / %": 21.76
  },
  {
    "compound": "Cc1cc(C)nc(N2CC[C@H](Oc3ccccc3F)[C@@H](O)CC2)n1",
    "target": "Trypanosoma brucei",
    "Percent Effect / %": -2.702
  },
  {
    "compound": "CCN1CCCC(O)(c2nc(C)c(CCOc3ccccc3F)s2)CC1 (stereo not drawn)",
    "target": "Trypanosoma brucei",
    "Percent Effect / %": -7.056
  },
  {
    "compound": "c1ccc(-c2nc(CN3CCCC3Cn3cncn3)no2)cc1 (stereo not drawn)",
    "target": "Trypanosoma brucei",
    "Percent Effect / %": 6.98
  },
  {
    "compound": "CC(=O)N1CCC[C@@H](NCc2c[nH]c3ccccc23)[C@@H]1c1ccc(C)s1.Cl",
    "target": "Trypanosoma brucei",
    "Percent Effect / %": -17.97
  },
  {
    "compound": "Cc1noc(C)c1CN1CCC2(CC1)C(c1ccccc1)CC(=O)N2C.O=C(O)C(F)(F)F (stereo not drawn)",
    "target": "Trypanosoma brucei",
    "Percent Effect / %": -57.86
  },
  {
    "compound": "COc1cc(CN[C@@H]2COC[C@H]2Cc2cc(C)no2)cc(OC)c1.O=C(O)CC(O)(CC(=O)O)C(=O)O",
    "target": "Trypanosoma brucei",
    "Percent Effect / %": 16.22
  },
  {
    "compound": "O=C1CCCN1c1cccc(N2CCC(NCCc3cscn3)CC2)c1",
    "target": "Trypanosoma brucei",
    "Percent Effect / %": 6.374
  },
  {
    "compound": "NCc1cnn(-c2ccccc2C(=O)NCc2ccccn2)c1",
    "target": "Trypanosoma brucei",
    "Percent Effect / %": 5.478
  },
  {
    "compound": "N#Cc1cn(C2CC2)c(=O)n(Cc2noc(-c3cccs3)n2)c1=O",
    "target": "Trypanosoma brucei",
    "Percent Effect / %": 18.62
  },
  {
    "compound": "CN(C)C(=O)Cc1ccccc1NCc1cccc2cccnc12",
    "target": "Trypanosoma brucei",
    "Percent Effect / %": 4.964
  },
  {
    "compound": "Cc1nc(C2(O)CCCNCC2)sc1CCOc1ccccc1Cl.Cl (stereo not drawn)",
    "target": "Trypanosoma brucei",
    "Percent Effect / %": 102.3
  },
  {
    "compound": "COc1cccc(-c2noc(C3CCN(Cc4ccc(C)cc4)C3)n2)c1.Cl (stereo not drawn)",
    "target": "Trypanosoma brucei",
    "Percent Effect / %": 4.598
  },
  {
    "compound": "CN[C@@H]1CCC[C@@H](Oc2ccccc2Oc2ccc(C)cc2)[C@@H]1O",
    "target": "Trypanosoma brucei",
    "Percent Effect / %": 101
  },
  {
    "compound": "O=C(c1cc[nH]n1)N1CCCC(c2cc(C(F)(F)F)[nH]n2)C1 (stereo not drawn)",
    "target": "Trypanosoma brucei",
    "Percent Effect / %": 17.05
  },
  {
    "compound": "c1ccc(-c2cccc(N3CCC(NCCc4cscn4)CC3)c2)cc1",
    "target": "Trypanosoma brucei",
    "Percent Effect / %": 99.95
  },
  {
    "compound": "CCN1CCCC(O)(c2nc(C)c(CCOc3ccccc3Cl)s2)CC1 (stereo not drawn)",
    "target": "Trypanosoma brucei",
    "Percent Effect / %": 33.23
  },
  {
    "compound": "CNC(=O)C1CCN(C(=O)NCc2ccc(-c3ccn[nH]3)cc2)CC1",
    "target": "Trypanosoma brucei",
    "Percent Effect / %": -16.44
  },
  {
    "compound": "N[C@@H]1CCC[C@@H](Oc2ccc(F)cc2Oc2ccccc2)[C@@H]1O",
    "target": "Trypanosoma brucei",
    "Percent Effect / %": 101.1
  },
  {
    "compound": "Cc1ccc(C(=O)N2CC[C@@H](N(C)C)[C@@H]2Cc2cnn(C)c2)cn1.O=C(O)C(F)(F)F.O=C(O)C(F)(F)F",
    "target": "Trypanosoma brucei",
    "Percent Effect / %": -478.3
  },
  {
    "compound": "O=C(O)C(F)(F)F.O=C(O)C(F)(F)F.O=C(c1n[nH]c2c1CN(C1CCOC1)CC2)N1CCCC1 (stereo not drawn)",
    "target": "Trypanosoma brucei",
    "Percent Effect / %": 8.032
  },
  {
    "compound": "CCCc1cc(C(=O)N2C[C@H]3CC=C(C)C[C@H]3C2)ccn1",
    "target": "Trypanosoma brucei",
    "Percent Effect / %": 56.41
  },
  {
    "compound": "O=C(O)C(F)(F)F.O=C([C@@H]1CC[C@@H]2[C@@H](CCN2c2ccncn2)O1)N1CCCCO1",
    "target": "Trypanosoma brucei",
    "Percent Effect / %": -55.7
  },
  {
    "compound": "Cn1cccc1C(O)CNS(=O)(=O)c1ccccc1Br (stereo not drawn)",
    "target": "Trypanosoma brucei",
    "Percent Effect / %": 101.8
  },
  {
    "compound": "N#Cc1cn(C2CC2)c(=O)n(Cc2ncc(-c3cccs3)o2)c1=O",
    "target": "Trypanosoma brucei",
    "Percent Effect / %": 55.83
  },
  {
    "compound": "CCCc1cc(C(=O)N2CC(c3ccncc3)C2)ccn1",
    "target": "Trypanosoma brucei",
    "Percent Effect / %": -10.84
  },
  {
    "compound": "CNc1ncc2c(n1)CN(C1CCCC1)C2=O",
    "target": "Trypanosoma brucei",
    "Percent Effect / %": -26.22
  },
  {
    "compound": "Cc1nc(C2(O)CCCNCC2)sc1CCOc1ccccc1F.Cl (stereo not drawn)",
    "target": "Trypanosoma brucei",
    "Percent Effect / %": 74.4
  },
  {
    "compound": "NC(=O)C1CCN(C(=O)NCc2ccc(-c3ccn[nH]3)cc2)CC1",
    "target": "Trypanosoma brucei",
    "Percent Effect / %": -25.22
  },
  {
    "compound": "Cc1cc(C)n(CC2CN(c3nnc(C)c(C)c3C#N)CCO2)n1 (stereo not drawn)",
    "target": "Trypanosoma brucei",
    "Percent Effect / %": 5.324
  }
]

----------
System: Trypanosoma brucei
Test: Trypanosoma brucei 72 hour study
Type: functional, organism-based
Design: scale not given: in the data most compounds retested in dose-response had high values
Details: 30.3 µM; […]
Hit rate of the full screen: of about 66,000 compounds, about 960 (1.5%) showed an effect of 50% or more. The list comes from a sample in which strong results are over-represented; it also holds close analogues and randomly drawn compounds.
# label = bin(measured Percent Effect), where bins are lower range (below -40%), middle range (-40% to below -10%), upper range (-10% or more)

[
  {
    "compound": "Cc1ccc(CN2CCC[C@]3(C(=O)O)CN(CC4CC4)C[C@@H]3C2)s1.O=C(O)C(F)(F)F.O=C(O)C(F)(F)F",
    "category": "lower range"
  },
  {
    "compound": "Cn1cc(CN2CCC(F)(F)C3(CCN(c4cccc(F)c4)C3)C2)cn1 (centres undefined)",
    "category": "upper range"
  },
  {
    "compound": "CCn1nc(C)c(-c2cncn2CCN(C)C2CCCC2)c1C.Cl",
    "category": "upper range"
  },
  {
    "compound": "Cn1nccc1C(=O)N1CC[C@]2(C[C@H](OCc3ccccn3)CO2)C1.O=C(O)C(F)(F)F",
    "category": "lower range"
  },
  {
    "compound": "FC1(F)CCN(Cc2ccncc2)CC12CCN(c1cccnc1)C2.O=C(O)C(F)(F)F.O=C(O)C(F)(F)F.O=C(O)C(F)(F)F (centres undefined)",
    "category": "middle range"
  },
  {
    "compound": "Cc1nc(C)c(C(=O)N2Cc3ccccc3OCC2CN(C)C)o1.Cl.Cl (centres undefined)",
    "category": "middle range"
  },
  {
    "compound": "Cn1ccnc1CN1CCC(F)(F)C2(CCN(c3cccnc3)C2)C1.O=C(O)C(F)(F)F.O=C(O)C(F)(F)F (centres undefined)",
    "category": "lower range"
  },
  {
    "compound": "Cl.Cl.O=C(NCc1cncc2c1CCN(C1CCOC1)C2)c1ccco1 (centres undefined)",
    "category": "middle range"
  },
  {
    "compound": "Cn1cc(CN2CCC(F)(F)C3(CCN(c4cccnc4)C3)C2)cn1.O=C(O)C(F)(F)F.O=C(O)C(F)(F)F (centres undefined)",
    "category": "upper range"
  },
  {
    "compound": "FC1(F)CCN(Cc2ccccn2)CC12CCN(c1cnccn1)C2.O=C(O)C(F)(F)F.O=C(O)C(F)(F)F.O=C(O)C(F)(F)F (centres undefined)",
    "category": "lower range"
  },
  {
    "compound": "COCCOc1ccc(C(=O)N2CCCC(n3cncn3)C2)cn1 (centres undefined)",
    "category": "middle range"
  },
  {
    "compound": "Fc1ccc(CN2CCC(F)(F)C3(CCN(c4cnccn4)C3)C2)cc1.O=C(O)C(F)(F)F.O=C(O)C(F)(F)F (centres undefined)",
    "category": "upper range"
  },
  {
    "compound": "Cc1cc2c(=O)n3c(nc2s1)CCN(C(=O)c1nn(C)cc1Cl)CC3",
    "category": "middle range"
  }
]
